Consider molecules characterized by their pIC50 with Sodium-dependent dopamine transporter (Rattus norvegicus, UniProt P23977).
Sequence (P23977 whole entry): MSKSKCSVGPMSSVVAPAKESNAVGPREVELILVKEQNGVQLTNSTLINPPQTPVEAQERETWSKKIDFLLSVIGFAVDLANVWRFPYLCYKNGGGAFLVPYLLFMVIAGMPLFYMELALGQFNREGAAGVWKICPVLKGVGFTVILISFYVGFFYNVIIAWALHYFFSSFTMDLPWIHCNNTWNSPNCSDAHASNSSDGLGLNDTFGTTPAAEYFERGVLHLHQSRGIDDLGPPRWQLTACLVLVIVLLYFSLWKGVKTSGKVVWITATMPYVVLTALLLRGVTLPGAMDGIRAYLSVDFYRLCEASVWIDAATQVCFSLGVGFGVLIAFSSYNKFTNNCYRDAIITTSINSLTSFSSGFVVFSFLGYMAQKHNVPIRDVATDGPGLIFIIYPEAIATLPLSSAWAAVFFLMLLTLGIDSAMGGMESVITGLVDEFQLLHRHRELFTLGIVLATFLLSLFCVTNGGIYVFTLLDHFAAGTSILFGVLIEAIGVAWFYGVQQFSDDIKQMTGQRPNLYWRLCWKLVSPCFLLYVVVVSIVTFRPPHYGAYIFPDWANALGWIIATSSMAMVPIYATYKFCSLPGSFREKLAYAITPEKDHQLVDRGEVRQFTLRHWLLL
# pIC50 is unitless: minus log10 of the molar concentration; print number only

// map COc1c(O)c2c3c(c1OC)CCN(C)[C@@H]3Cc1ccccc1-2 to recorded pIC50 (system: Sodium-dependent dopamine transporter (Rattus norvegicus, UniProt P23977))
4.33

Let us now turn to COc1cc(C[C@H]2c3c(ccc(OC)c3O)CCN2C)ccc1O [ISOCRASSIFOLINE]
4.44

Then this molecule: COc1cc2c(cc1OC)[C@H](Cc1ccc(O)cc1)NCC2 [NORARMEPAVINE]
4.43

Then this molecule: COc1ccc2cc1Oc1ccc(cc1)C[C@H]1c3c(cc(OC)c(O)c3Oc3cc4c(cc3OC)CCN(C)[C@@H]4C2)CCN1C [HOMOAROMOLINE]
4.96

Now the molecule Cc1c2c3c(cc4c(c3c3ccc(O)cc13)OCO4)CCN2C [BELEMINE]
4.21

Same thing, different molecule: COc1cccc2c1-c1c3c(cc4c1[C@@H](C2)N(C)CC4)OCO3
4.50

Param item: COc1ccc2cc1Oc1ccc(cc1)C[C@@H]1c3cc(c(OC)cc3CCN1C)Oc1c(OC)c(OC)cc3c1[C@H](C2)N(C)CC3 [ISOTETRANDRINE]
5.38

Quick one: COc1cc2c3cc1Oc1c(O)c(OC)cc4c1[C@H](Cc1ccc(OC)c(c1)-c1cc(ccc1O)C[C@H]3N(C)CC2)N(C)CC4 [ANTIOQUINE]
5.47

Please answer likewise for COc1c(O)c2c3c(c1OC)CCN[C@@H]3Cc1ccccc1-2 [ISOPILINE]
5.60

// query: COc1cc2c(cc1O)C[C@H]1c3c(ccc(O)c3O2)CCN1C [BREOGANINE]
4.25

Moving on to COc1c(O)c2c3c(nccc3c1OC)C(C)(C)c1cc(O)ccc1-2 [MELOSMINE]
4.63

Try this molecule too: COc1c2c3c(c4c1OCO4)-c1ccccc1C[C@H]3NCC2 [NORSTEPHALAGINE]
5.85

Entry COc1cc2c3cc1Oc1c(OC)c(OC)cc4c1[C@@H](C(=O)c1ccc(OC)c(c1)-c1cc(ccc1OC)C[C@H]3N(C)CC2)N(C)CC4 [DIMETHYLPSEUDOXANDRINE] please
4.70

Also need COc1cc2c(cc1OC)[C@@H](Cc1ccc(OC)c(Oc3ccc(C[C@H]4NCCc5cc(OC)c(OC)cc54)cc3)c1)N(C)CC2 [PAMPULHAMINE] , thanks.
4.07

Input COc1cc2c(cc1OC)[C@@H](Cc1ccc(Oc3cc(C[C@@H]4c5cc(OC)c(OC)cc5CCN4C)ccc3OC)cc1)N(C)CC2
5.24

Can you check O=C1c2ccccc2-c2c3c(cc4ccnc1c24)OCO3 [LIRIODENINE] next?
4.51

Check c1ccc2c(c1)C[C@H]1NCCc3cc4c(c-2c31)OCO4 [ANONAINE] too.
6.10

Input COc1ccc2cc1Oc1ccc(cc1)C[C@H]1c3c(cc(OC)c(OC)c3Oc3cc4c(cc3OC)CCN(C)[C@@H]4C2)CCN1C [OBABERINE]
5.41

Entry COc1ccc2c(c1O)Oc1c(OC)ccc3c1[C@H](C2)N(C)CC3 [SARCOCAPNIDINE] please
4.07

// same read-out, input: O=C(O)CCCCCCNC1c2ccccc2CCc2ccccc21 [AMINEPTINE]
6.00

Can you check COc1cc2c(cc1OC)Oc1c(O)ccc(CCN(C)C)c1C=C2 [SECOCULARIDINE] next?
4.87

// same read-out, input: COc1cc2c(cc1OC)Oc1c(O)ccc3c1[C@H](C2)N(C)CC3 [CULARIDINE]
4.39

Ok, now Oc1ccc2c(c1)C[C@H]1NCCc3cc4c(c-2c31)OCO4 [ANOLOBINE]
5.09

Check COc1cc2c(cc1OC)Oc1c(OC)ccc(CCN(C)C)c1C=C2 [SECOCULARINE] too.
4.55
